Each entry below carries its measured GI50, system: NCI-H460 lung.

The examples below pair each entry with its known result.
compound=COc1c(B(O)O)cc(F)cc1-c1nc2ccc3[nH]ncc3c2c2c1CCCC2 value_measured="0.822 µM"
compound="CC(O)c1cc(C(=O)N[C@@H](C)Cn2ccc(-c3ccc(C#N)c(Cl)c3)n2)n[nH]1 (some centres undefined)" value_measured="> 100 µM"
compound=CC[C@H](C)C(=O)O[C@H]1C[C@H](O)C=C2C=C[C@H](C)[C@H](CC[C@@H](O)C[C@@H](O)CC(=O)O)[C@H]21 value_measured="> 100 µM"

// next entry
Param request: GI50 | system NCI-H460 lung | item COc1cc(NC(=O)C2=C(N3CCOCC3)/C(=C/c3ccc(Cl)cc3)CC2)cc(OC)c1OC
> 100 µM
